Target: UniProt P39146
Sequence (P39146 whole entry): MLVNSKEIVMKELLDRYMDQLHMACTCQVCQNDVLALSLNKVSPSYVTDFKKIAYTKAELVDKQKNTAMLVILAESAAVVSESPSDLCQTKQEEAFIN
Test: isothermal titration calorimetry, one-site model
readout_name: Kd (µM)

P. Nc1ncnc2c1ncn2[C@@H]1O[C@@H]2COP(=O)(O)O[C@H]3[C@@H](O)[C@H](n4cnc5c(N)ncnc54)O[C@@H]3COP(=O)(O)O[C@H]2[C@H]1O [c-di-AMP]
Q. Nc1nc2c(ncn2[C@@H]2O[C@@H]3CO[P@](=O)(O)O[C@H]4[C@@H](O)[C@H](n5cnc6c(=O)[nH]c(N)nc65)O[C@@H]4CO[P@](=O)(O)O[C@H]3[C@H]2O)c(=O)[nH]1 [c-di-GMP]
Select the item whose Kd value is smaller, choosing between P and Q . Could you answer with the label of the item you picked?
Q

Source listed as paper PMC12265714.
